Test: Average animal weight in MCF-7 mouse xenograft model
Format: in vivo
Details: nude mice with MCF-7 xenograft, i.p., day 22
OBSERVED_PROPERTY: Average Weight of Animals in Grams after Days 22 (Grams)

| COMPOUND | MEASURED_RESULT |
| --- | --- |
| O=c1oc(Cn2cnc3scc(-c4cccs4)c3c2=O)nc2ccccc12 [Compound 5] | 22.5 |
| COc1cccc(C2SCC(=O)N2NC(=O)Cn2cnc3scc(-c4cccs4)c3c2=O)c1OC (stereo not drawn) [Compound 8] | 24.2 |
| Cc1cc(=O)n(C(=O)Cn2cnc3scc(-c4cccs4)c3c2=O)[nH]1 [Compound 12] | 27.1 |
| O=C(Cn1cnc2scc(-c3cccs3)c2c1=O)NN=Cc1ccc(Cl)cc1 [Compound 7] | 27.0 |
| Nc1cc(O)cc(=O)n1NC(=O)Cn1cnc2scc(-c3cccs3)c2c1=O [Compound 14] | 25.7 |
| CC(=O)NNC(=O)Cn1cnc2scc(-c3cccs3)c2c1=O [Compound 13] | 25.3 |

----------
Assay: Average animal weight in MCF-7 mouse xenograft model
Format: in vivo
Details: nude mice with MCF-7 xenograft, i.p., day 20
OBSERVED_PROPERTY: Average Weight of Animals in Grams after Days 20 (Grams)

| MOLECULE | MEASURED_RESULT |
| --- | --- |
| O=C(Cn1cnc2scc(-c3cccs3)c2c1=O)NN=Cc1ccc(Cl)cc1 | 27.0 |
| CCOC(=O)Cn1cnc2scc(-c3cccs3)c2c1=O | 27.7 |
| O=c1oc(Cn2cnc3scc(-c4cccs4)c3c2=O)nc2ccccc12 | 22.6 |
| Cc1cc(=O)n(C(=O)Cn2cnc3scc(-c4cccs4)c3c2=O)[nH]1 | 27.1 |
| NC1=CC(N)N(NC(=O)Cn2cnc3scc(-c4cccs4)c3c2=O)C=C1 (centres unmarked) | 25.5 |

----------
Assay: Average animal weight in MCF-7 mouse xenograft model
Assay type: in vivo
Details: nude mice with MCF-7 xenograft, i.p., day 16
OBSERVED_PROPERTY: Average Weight of Animals in Grams after Days 16 (Grams)

| SMILES_STR | UNIT_OF_MEASURE | MEASURED_RESULT |
| --- | --- | --- |
| COc1cccc(C=NNC(=O)Cn2cnc3scc(-c4cccs4)c3c2=O)c1OC | Grams | 23.4 |
| CC(=O)NNC(=O)Cn1cnc2scc(-c3cccs3)c2c1=O | Grams | 25.3 |
| O=C(Cn1cnc2scc(-c3cccs3)c2c1=O)NN=Cc1ccc(Cl)cc1 | Grams | 27.0 |
| O=C(Cn1cnc2scc(-c3cccs3)c2c1=O)NN1C(=O)CSC1=Nc1ccccc1 | Grams | 26.3 |
| Cc1cc(=O)n(C(=O)Cn2cnc3scc(-c4cccs4)c3c2=O)[nH]1 | Grams | 27.2 |

----------
The molecules listed here are annotated with their pIC50.
System: MCF-7 cells
Experiment: MTT cytotoxic assay on MCF-7 cells
Type: cell-based, Human
Conditions: Homo sapiens, MCF7
// returns pIC50 (minus log10 of molar concentration), number only

| MOLECULE | pIC50 |
| --- | --- |
| O=c1oc(Cn2cnc3scc(-c4cccs4)c3c2=O)nc2ccccc12 [Compound 5] | 5.32 |
| O=C(Cn1cnc2scc(-c3cccs3)c2c1=O)NN=Cc1ccc(Cl)cc1 [Compound 7] | 5.36 |
| CC(=O)NNC(=O)Cn1cnc2scc(-c3cccs3)c2c1=O [Compound 13] | 5.44 |
| CCOC(=O)Cn1cnc2scc(-c3cccs3)c2c1=O [Compound 3] | 5.22 |
| COc1cccc(C=NNC(=O)Cn2cnc3scc(-c4cccs4)c3c2=O)c1OC [Compound 6] | 5.34 |

## Input Answer with the recorded pIC50 for the molecule listed here: O=C(Cn1cnc2scc(-c3cccs3)c2c1=O)NN1C(=O)CSC1c1ccc(Cl)cc1 (stereo not shown) [Compound 9]
## Output 5.63

Attribution: paper PMC6631792
